I'd be grateful if you could share measured hERG Patch Clamp hERG % blk (10 μm test cmpd) for these entries.
# Test system: hERG potassium channel (Homo sapiens, UniProt Q12809)
# Construct: expressed in transfected cells; host or cells: CHO (Chinese Hamster Ovary)
# Sequence (Q12809 whole entry): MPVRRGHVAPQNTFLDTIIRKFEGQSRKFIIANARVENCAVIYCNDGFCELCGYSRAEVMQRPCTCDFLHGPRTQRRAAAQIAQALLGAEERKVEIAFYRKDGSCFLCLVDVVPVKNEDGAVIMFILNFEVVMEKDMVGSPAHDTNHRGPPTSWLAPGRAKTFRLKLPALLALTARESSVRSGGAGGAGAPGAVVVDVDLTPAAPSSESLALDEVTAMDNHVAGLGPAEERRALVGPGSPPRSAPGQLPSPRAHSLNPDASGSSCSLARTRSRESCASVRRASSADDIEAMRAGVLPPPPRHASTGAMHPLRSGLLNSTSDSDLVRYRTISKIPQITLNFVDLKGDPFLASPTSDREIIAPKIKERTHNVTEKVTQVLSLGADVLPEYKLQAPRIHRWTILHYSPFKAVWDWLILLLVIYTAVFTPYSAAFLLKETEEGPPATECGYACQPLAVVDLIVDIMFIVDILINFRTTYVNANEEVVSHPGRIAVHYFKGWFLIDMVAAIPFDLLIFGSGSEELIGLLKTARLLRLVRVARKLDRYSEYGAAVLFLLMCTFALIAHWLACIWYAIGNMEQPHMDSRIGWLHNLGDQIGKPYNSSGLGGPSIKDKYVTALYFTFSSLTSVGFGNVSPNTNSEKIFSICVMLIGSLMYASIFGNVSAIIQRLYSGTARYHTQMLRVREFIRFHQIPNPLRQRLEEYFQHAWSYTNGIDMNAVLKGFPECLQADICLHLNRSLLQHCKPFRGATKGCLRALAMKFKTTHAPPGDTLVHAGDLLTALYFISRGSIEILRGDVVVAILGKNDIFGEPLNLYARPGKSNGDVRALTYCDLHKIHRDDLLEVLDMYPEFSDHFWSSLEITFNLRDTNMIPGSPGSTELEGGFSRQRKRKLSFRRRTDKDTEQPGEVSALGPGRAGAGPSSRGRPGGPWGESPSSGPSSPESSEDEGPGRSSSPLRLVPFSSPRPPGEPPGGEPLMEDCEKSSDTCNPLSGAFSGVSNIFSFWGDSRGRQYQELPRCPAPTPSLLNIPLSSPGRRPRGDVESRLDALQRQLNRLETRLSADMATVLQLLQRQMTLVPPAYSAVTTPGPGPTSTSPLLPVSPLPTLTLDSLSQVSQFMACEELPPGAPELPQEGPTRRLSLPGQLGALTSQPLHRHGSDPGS
# Method: hERG screening assay (PatchXpress automated patch clamp, CHO cell line)
# Format: cell-based
# Experimental context: 10 μm test compound; CHO cells
Express the result in % but write the number alone.

Quote hERG Patch Clamp hERG % blk (10 μm test cmpd) reported for CCOC(=O)c1c(Cn2ccnc2)nc2ccc(Cl)cc2c1-c1ccccc1 please.
94.5

Specify reported hERG Patch Clamp hERG % blk (10 μm test cmpd) for the molecule shown: CCOC(=O)c1c(Cn2cnnn2)nc2ccc(Cl)cc2c1-c1ccccc1
66.0

Note down hERG Patch Clamp hERG % blk (10 μm test cmpd) recorded for Cc1nc2ccc(Cl)cc2c(-c2ccccc2)c1C(=O)OC(c1ccccc1)C1CC1 (stereo not drawn)
13.5
